We begin with a simple list: items and their reported ED50.
Tested on: Klebsiella pneumoniae
Assay: In vivo potency on systemic infection caused by after oral administration to mice expressed as median protective dose.
Type: functional
Details: read-out: PD50
Report the figure in mg/kg without appending any unit label.

Sample records with ED50:
CN[C@H]1CCN(c2nc3c(cc2F)c(=O)c(C(=O)O)cn3C(C)(C)C)C1 | 2.6
C[C@H]1CN(c2nc3c(cc2F)c(=O)c(C(=O)O)cn3C(C)(C)C)C[C@H]1N | 3.9
O=C(O)c1cn(C2CC2)c2cc(N3CCNCC3)c(F)cc2c1=O | 1.5

Turning now to a further record.
Consider C[C@@H]1C[C@@H](N)CN1c1nc2c(cc1F)c(=O)c(C(=O)O)cn2C(C)(C)C (stereo in doubt; 68) . Its measured ED50 is 8.2

----------
Tested on: Morganella morganii
Assay: In vitro antibacterial activity against Morganella morganii A 15153.
Format: functional
Conditions: Morganella morganii; read-out: MIC
property: MIC (µg/mL)
Lab book: enter the figure in µg/mL, no units written.

CN(C)C1CCN(c2nc3c(cc2F)c(=O)c(C(=O)O)cn3C(C)(C)C)C1 (centres undefined) | 0.5

Value of MIC reported for the molecule C[C@@H]1CN(c2nc3c(cc2F)c(=O)c(C(=O)O)cn3C(C)(C)C)C[C@@H]1N is 0.5

Query O=C(O)c1cn(C2CC2)c2cc(N3CCNCC3)c(F)cc2c1=O yields MIC of 0.06

molecule C[C@H]1CN(c2nc3c(cc2F)c(=O)c(C(=O)O)cn3C(C)(C)C)C[C@@H]1N , MIC observed: 0.25

In plain terms, CC1(C)CN(c2nc3c(cc2F)c(=O)c(C(=O)O)cn3C(C)(C)C)C[C@H]1N has a documented MIC of 0.5

Lab note: measured MIC of C[C@H]1C[C@@H](N)CN1c1nc2c(cc1F)c(=O)c(C(=O)O)cn2C(C)(C)C was 0.5

Just so you know, measured MIC for CN[C@@H]1CCN(c2nc3c(cc2F)c(=O)c(C(=O)O)cn3C(C)(C)C)C1 came out at 0.5

Lab note: CC(C)(C)n1cc(C(=O)O)c(=O)c2cc(F)c(N3CC[C@@H](N)C3)nc21 gave MIC of 0.25

Documented MIC of C[C@@H]1CN(c2nc3c(cc2F)c(=O)c(C(=O)O)cn3C(C)(C)C)C[C@H]1N : 0.25

Note to self: MIC recorded for CC1(C)CN(c2nc3c(cc2F)c(=O)c(C(=O)O)cn3C(C)(C)C)C[C@@H]1N was 0.25

Recorded MIC (molecule CN[C@H]1CCN(c2nc3c(cc2F)c(=O)c(C(=O)O)cn3C(C)(C)C)C1 ): 0.25

C[C@@H]1C[C@H](N)CN1c1nc2c(cc1F)c(=O)c(C(=O)O)cn2C(C)(C)C has a reported MIC of 2

So, C[C@H]1CN(c2nc3c(cc2F)c(=O)c(C(=O)O)cn3C(C)(C)C)C[C@H]1N ? Its MIC was 0.13

molecule CC(C)(C)n1cc(C(=O)O)c(=O)c2cc(F)c(N3CC[C@H](N)C3)nc21 , MIC observed: 0.13

----------
Tested on: Pseudomonas aeruginosa
Experiment: In vitro antibacterial activity against Pseudomonas aeruginosa A 9243.
Format: functional
Details: Pseudomonas aeruginosa; read-out: MIC
Recorded MIC for the following compounds
Numbers only; they are read as µg/mL.

Look over these answered cases.
C[C@H]1C[C@@H](N)CN1c1nc2c(cc1F)c(=O)c(C(=O)O)cn2C(C)(C)C | 2
CN[C@H]1CCN(c2nc3c(cc2F)c(=O)c(C(=O)O)cn3C(C)(C)C)C1 | 0.25

Then there is this compound:
Entry CC(C)(C)n1cc(C(=O)O)c(=O)c2cc(F)c(N3CC[C@@H](N)C3)nc21 , MIC reported as 0.25
